Where these numbers come from: patent US20220402917A1

Biological target: PD1/PD-L1 (Homo sapiens, UniProt Q9NZQ7)
Sequence (Q9NZQ7 19-290): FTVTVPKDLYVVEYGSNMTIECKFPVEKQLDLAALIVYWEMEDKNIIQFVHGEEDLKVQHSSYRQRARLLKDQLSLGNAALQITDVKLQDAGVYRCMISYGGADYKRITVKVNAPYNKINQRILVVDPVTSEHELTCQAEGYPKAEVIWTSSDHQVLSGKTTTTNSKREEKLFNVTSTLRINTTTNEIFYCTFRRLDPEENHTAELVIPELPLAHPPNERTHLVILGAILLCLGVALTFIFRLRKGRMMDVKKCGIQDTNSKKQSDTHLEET
Test: NFAT activity test (TCR Activitor/PD-L1 CHO cells with PD-1/NFAT Reporter-Jurkat cells)
Type: cell-based
Parameters: host or cells: TCR Activitor/PD-L1 CHO cells; PD-1/NFAT Reporter-Jurkat cells
Conditions: TCR Activitor/PD-L1 CHO cells + PD-1/NFAT Reporter-Jurkat cells, 5 hours, luciferase; read-out: IC50, inhibitory activity on PD1/PD-L1 binding (NFAT activity test)
pIC50: −log10 of the molar value.
reported metric: pIC50

Past entries and their recorded results:
> print(dat)
                                   molecule                               measured.on  reported.metric  observed.result
1  Cc1cc(C(=O)Nc2cccc(-c3cccc(NC(=O)c4ccc(CNCCO)cn4)c3C)c2C#N)nc2c1CCN(CCO)C2  PD1/PD-L1 (Homo sapiens, UniProt Q9NZQ7)            pIC50             7.42
2  Cc1cc(C(=O)Nc2cccc(-c3cccc(NC(=O)c4ccc(CNCCO)cn4)c3C)c2Cl)nc2c1CCN(C(CO)CO)C2  PD1/PD-L1 (Homo sapiens, UniProt Q9NZQ7)            pIC50             7.37
3  COc1nc(-c2cccc(-c3cccc(NC(=O)c4cc(OC(F)F)c5c(n4)CN(CCO)CC5)c3Cl)c2Cl)cnc1CN1CCC(CO)C1 (stereo not shown)  PD1/PD-L1 (Homo sapiens, UniProt Q9NZQ7)            pIC50             7.78
4  COc1nc(-c2cccc(-c3cccc(NC(=O)c4cc(C)c5c(n4)CN(CC(O)CO)CC5)c3Cl)c2Cl)cnc1CN1CC(O)C1 (stereo not shown)  PD1/PD-L1 (Homo sapiens, UniProt Q9NZQ7)            pIC50             7.58
5  COc1cc(C(=O)Nc2cccc(-c3cccc(-c4cnc(CN5CC(O)C5)c(OC)n4)c3Cl)c2Cl)nc2c1CCN(CCO)C2  PD1/PD-L1 (Homo sapiens, UniProt Q9NZQ7)            pIC50             7.53
6  Cc1cc(C(=O)Nc2cccc(-c3cccc(NC(=O)c4ccc(CNCCO)cn4)c3C)c2Cl)nc2c1CCN(C1CCC(C)(C(=O)O)CC1)C2 (stereo not shown)  PD1/PD-L1 (Homo sapiens, UniProt Q9NZQ7)            pIC50             7.77
7  COc1nc(-c2cccc(-c3cccc(NC(=O)c4cc(C)c5c(n4)CN(CCO)CC5)c3Cl)c2Cl)cnc1CN1CC2(CC(O)C2)C1  PD1/PD-L1 (Homo sapiens, UniProt Q9NZQ7)            pIC50             7.92
8  Cc1cc(C(=O)Nc2cccc(-c3cccc(NC(=O)c4ccc(CNCCO)cn4)c3C)c2Cl)nc2c1CCN(CCO)C2  PD1/PD-L1 (Homo sapiens, UniProt Q9NZQ7)            pIC50             7.49

1 = COc1nc(-c2cccc(-c3cccc(NC(=O)c4cc(C#N)c5c(n4)CN(CCO)CC5)c3Cl)c2Cl)cnc1CN1CC2(CC(O)C2)C1
2 = COc1nc(-c2cccc(-c3cccc(NC(=O)c4cc(C)c5c(n4)CN(CCO)CC5)c3Cl)c2Cl)cnc1CNCCO
// task: argmin of pIC50 over [ 1 , 2 ] Please reply using the label of the selected record.
1
(1: 7.39, 2: 7.65)

I = COc1nc(-c2cccc(-c3cccc(NC(=O)c4nc(C)c5c(n4)CN(CCO)CC5)c3Cl)c2Cl)cnc1CN1CC(O)C1
II = COc1nc(-c2cccc(-c3cccc(NC(=O)c4cc(C)c5c(n4)CN(CCO)CC5)c3Cl)c2Cl)cnc1CN1CC(C)(O)C1
Select the item with the higher value of pIC50 from the options I and II listed. Please reply using the label of the selected record.
II
(II: 7.53, I: 7.33)
